- testedTarget: LIM domain kinase 1 (Homo sapiens)
- Sequence (P53667 whole entry, the tested form may be a part): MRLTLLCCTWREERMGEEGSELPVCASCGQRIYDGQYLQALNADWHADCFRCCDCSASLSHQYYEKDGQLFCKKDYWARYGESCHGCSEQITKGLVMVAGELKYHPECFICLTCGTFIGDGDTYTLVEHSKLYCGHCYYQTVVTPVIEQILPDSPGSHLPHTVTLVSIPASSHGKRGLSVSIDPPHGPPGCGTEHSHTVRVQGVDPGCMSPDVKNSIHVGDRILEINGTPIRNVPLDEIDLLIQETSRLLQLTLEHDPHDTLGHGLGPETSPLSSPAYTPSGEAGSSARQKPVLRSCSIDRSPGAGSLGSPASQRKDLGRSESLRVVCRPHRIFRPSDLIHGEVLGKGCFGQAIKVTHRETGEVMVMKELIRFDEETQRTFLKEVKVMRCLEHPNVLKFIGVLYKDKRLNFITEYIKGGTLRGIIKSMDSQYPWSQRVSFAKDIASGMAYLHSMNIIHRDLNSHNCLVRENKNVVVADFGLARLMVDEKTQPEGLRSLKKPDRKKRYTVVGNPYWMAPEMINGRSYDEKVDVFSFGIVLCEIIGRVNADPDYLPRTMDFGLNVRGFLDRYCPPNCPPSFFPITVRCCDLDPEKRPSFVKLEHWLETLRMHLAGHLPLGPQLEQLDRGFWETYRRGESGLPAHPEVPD
- assayComment: Inhibition of LIMK1 using cofilin-2 as substrate after 60 mins by Kinase-Glo assay
measuredAttribute: pIC50
Just so you know, pIC50 here is -log10 of the concentration in molar units; reply with that number alone.

Query the reported pIC50 for LIM domain kinase 1 (Homo sapiens); item: Nc1ncnc2sc3c(c12)Cc1ccccc1-3
4.96

// repeat for Nc1ncnc2sc3c(c12)CCC(C(=O)NCc1ccccc1)C3 (stereo unspecified) and report
5.07

// repeat for Nc1ncnc2sc3c(c12)CC1CC3C1 and report
5.74

// repeat for CC1CCCc2sc3ncnc(N)c3c21 (stereo unspecified) and report
5.57

// repeat for Nc1ncnc2sc3c(c12)CCOC3 and report
5.46

// repeat for Cn1c2cc(-c3ccccc3)ccc2c2ncnc(N)c21 and report
6.59

// repeat for NC(=O)C1CCc2c(sc3ncnc(N)c23)C1 (stereo unspecified) and report
5.04

// repeat for COc1ccc(-c2sc3ncnc(N)c3c2C)cc1OC and report
5.49
